Tested on: P-388/SCHABEL (MDR)
procedure.details: LAMELLARINS TOXICITY TO RESISTANT (MDR) TUMOR CELL LINE P-388/SCHABEL (MTT)
Format: cell-based
measurement.setup: Mus musculus, P388, 72 h; P-388/SCHABEL (MDR), MTT, three days; read-out: ACTIVITY: IC50
readout.label: IC50 (µg/mL)

compound=COc1cc(-c2c3c4cc(OC)c(O)cc4oc(=O)c3n3ccc4c(OC)c(OC)c(OC)cc4c23)ccc1O readout_label=IC50 unit_annotation=µg/mL reading=5.5
compound=COc1cc(-c2c3n(c4c(=O)oc5cc(O)c(OC)cc5c24)CCc2c-3cc(OC)c(OC)c2O)ccc1O readout_label=IC50 unit_annotation=µg/mL reading=0.1
compound="COc1cc(-c2c3c4cc(OC)c(OC(C)=O)cc4oc(=O)c3n3ccc4c(OC(C)=O)c(OC)c(OC)cc4c23)ccc1OC(C)=O [Lamellarin M-triacetate]" readout_label=IC50 unit_annotation=µg/mL reading=0.7
compound=COc1cc2c(cc1O)CCn1c-2c(-c2ccc(OC)c(OC)c2)c2c3cc(OC)c(O)cc3oc(=O)c21 readout_label=IC50 unit_annotation=µg/mL reading=2
compound="COc1ccc(-c2c3n(c4c(=O)oc5cc(OC)c(OC)cc5c24)CCc2c-3cc(OC)c(OC)c2OC)cc1OC [Lamellarin I-Methylate]" readout_label=IC50 unit_annotation=µg/mL reading=3
compound="COc1cc(-c2c3c4cc(OC)c(OC(C)=O)cc4oc(=O)c3n3ccc4cc(OC(C)=O)c(OC)cc4c23)ccc1OC(C)=O [Lamellarin D-triacetate]" readout_label=IC50 unit_annotation=µg/mL reading=0.09
compound="COc1cc(-c2c3n(c4c(=O)oc5cc(O)c(OC)cc5c24)C(O)Cc2c-3cc(OC)c(OC)c2OC)ccc1O (stereo not shown)" readout_label=IC50 unit_annotation=µg/mL reading=0.5

====

Test system: CHOC5 (MDR)
procedure.details: LAMELLARINS TOXICITY TO RESISTANT (MDR) TUMOR CELL LINE CHOC5 (MTT)
Format: cell-based, chinese hamster
measurement.setup: Cricetulus griseus, 72 h; CHOC5 (MDR), MTT, three days; read-out: ACTIVITY: IC50
Protocol: Sensitive and MDR cells were maintained, in logarithmic phase of growth, in Eagle's Minimum Essential Medium, with Earle's Balanced Salts, with non-essential amino acids, with 2.0 mM L-glutamine, without sodium bicarbonate (EMEM/neaa), supplemented with 5% Fetal Calf Serum (FCS), 10^-2 M sodium bicarbonate and 0.1 g/l penicillin G+0.1 g/l streptomycin sulfate. […]
The compounds listed here are annotated with their IC50.
readout.label: IC50 (µg/mL)

compound="C/C=C/C[C@@H](C)C(=O)[C@H]1C(=O)N[C@@H](C(C)C)C(=O)N(C)CC(=O)N(C)[C@@H](CC(C)C)C(=O)N[C@@H](C(C)C)C(=O)N(C)[C@@H](CC(C)C)C(=O)N[C@@H](C)C(=O)N[C@H](C)C(=O)N(C)[C@@H](CC(C)C)C(=O)N(C)[C@@H](CC(C)C)C(=O)N(C)[C@@H](C(C)C)C(=O)N1C [PSC833, reference compound]" readout_label=IC50 reading=0.1
compound=COc1cc2c(cc1O)CCn1c-2c(-c2ccc(OC)c(OC)c2)c2c3cc(OC)c(O)cc3oc(=O)c21 readout_label=IC50 reading=0.6

====

Quick list: IC50 per entry.
System: CHOB1
procedure.details: LAMELLARINS TOXICITY TO SENSITIVE TUMOR CELL LINE CHOB1 (MTT)
Format: cell-based, chinese hamster
measurement.setup: Cricetulus griseus, 72 h; CHOB1, sensitive, MTT, three days; read-out: ACTIVITY: IC50
readout.label: IC50 (µg/mL)

compound=COc1ccc(-c2c3n(c4c(=O)oc5cc(O)c(OC)cc5c24)CCc2cc(O)c(OC)cc2-3)cc1O reading=0.4
compound=COc1cc2c(cc1O)CCn1c-2c(-c2ccc(OC)c(OC)c2)c2c3cc(OC)c(O)cc3oc(=O)c21 reading=0.3
compound="COc1ccc(CCN(C)CCCC(C#N)(c2ccc(OC)c(OC)c2)C(C)C)cc1OC (stereo not shown) [Verapamil, reference compound]" reading=9
compound="COc1ccc(-c2c3n(c4c(=O)oc5cc(OC(C)=O)c(OC)cc5c24)CCc2cc(OC(C)=O)c(OC)cc2-3)cc1OC(C)=O [Lamellarin L-triacetate]" reading=1.5
compound="COc1cc(-c2c3c4cc(OC)c(OC(C)=O)cc4oc(=O)c3n3ccc4c(OC(C)=O)c(OC)c(OC)cc4c23)ccc1OC(C)=O [Lamellarin M-triacetate]" reading=0.5
compound="COc1ccc(-c2c3n(c4c(=O)oc5cc(OC)c(OC)cc5c24)CCc2c-3cc(OC)c(OC)c2OC)cc1OC [Lamellarin I-Methylate]" reading=0.5
compound=COc1cc(-c2c3c4cc(OC)c(O)cc4oc(=O)c3n3ccc4c(OC)c(OC)c(OC)cc4c23)ccc1O reading=3
